Parameter: %-inhibition of EPHA5. Scope: all listed entries.
Target: panel of more than 300 wild-type and mutant kinases (313 kinase panel) (Homo sapiens, UniProt P54756)
Experiment: Kinase profiling in a biochemical assay panel (mobility shift assays and ELISA), %-inhibition at 1 μM; selectivity entropy
Conditions: kinase EPHA5; compound at 1 μM
Dear colleague, please return just the value in %, with no unit written.

Example cases with answers are listed next.
CO[C@H]1C[C@@H]2CC[C@@H](C)[C@@](O)(O2)C(=O)C(=O)N2CCCC[C@H]2C(=O)O[C@H]([C@H](C)C[C@@H]2CC[C@@H](OCCO)[C@H](OC)C2)CC(=O)[C@H](C)/C=C(\C)[C@@H](O)[C@@H](OC)C(=O)[C@H](C)C[C@H](C)/C=C/C=C/C=C/1C : -1.69
CS(=O)(=O)CCNCc1ccc(-c2ccc3ncnc(Nc4ccc(OCc5cccc(F)c5)c(Cl)c4)c3c2)o1 : 6
Cc1ccc(Nc2nccc(N(C)c3ccc4c(C)n(C)nc4c3)n2)cc1S(N)(=O)=O : 32
O=S(=O)(c1cccc2cnccc12)N1CCCNCC1 : -3.43

Could you now consider this next molecule?
Input line: Give its %-inhibition of EPHA5 value. Item: "C[C@@H](Oc1cc(-c2cnn(C3CCNCC3)c2)cnc1N)c1c(Cl)ccc(F)c1Cl"
Output line: 71

###

Molecular target: panel of more than 300 wild-type and mutant kinases (313 kinase panel) (Homo sapiens, UniProt Q02750)
Assay: Kinase profiling in a biochemical assay panel (mobility shift assays and ELISA), %-inhibition at 1 μM; selectivity entropy
Conditions: kinase MAP2K1; compound at 1 μM
Tag: true if measured %-inhibition of MAP2K1 is not below 10%, false if it is.

Worked set:
COc1cc2nccc(Oc3ccc(NC(=O)C4(C(=O)Nc5ccc(F)cc5)CC4)cc3)c2cc1OC [cabozantinib] : true
CO[C@H]1C[C@@H]2CC[C@@H](C)[C@@](O)(O2)C(=O)C(=O)N2CCCC[C@H]2C(=O)O[C@H]([C@H](C)C[C@@H]2CC[C@@H](OC(=O)C(C)(CO)CO)[C@H](OC)C2)CC(=O)[C@H](C)/C=C(\C)[C@@H](O)[C@@H](OC)C(=O)[C@H](C)C[C@H](C)/C=C/C=C/C=C/1C : false

Input line: Please check the record "CS(=O)(=O)CCNCc1ccc(-c2ccc3ncnc(Nc4ccc(OCc5cccc(F)c5)c(Cl)c4)c3c2)o1" and state if its %-inhibition of MAP2K1 is at or above 10%.
Output line: true

Input line: Please check the record "Cc1ccc(Nc2nccc(N(C)c3ccc4c(C)n(C)nc4c3)n2)cc1S(N)(=O)=O" and state if its %-inhibition of MAP2K1 is at or above 10%.
Output line: false

Input line: Please check the record "CC(=O)Nc1cccc(-n2c(=O)n(C3CC3)c(=O)c3c(Nc4ccc(I)cc4F)n(C)c(=O)c(C)c32)c1" and state if its %-inhibition of MAP2K1 is at or above 10%.
Output line: true

###

Parameter: %-inhibition of PKCβ2. Scope: all listed entries.
Test system: panel of more than 300 wild-type and mutant kinases (313 kinase panel)
Assay: Kinase profiling in a biochemical assay panel (mobility shift assays and ELISA), %-inhibition at 1 μM; selectivity entropy
Conditions: 1 µM
Dear colleague, please return just the value in %, with no unit written.

C[C@@H](Oc1cc(-c2cnn(C3CCNCC3)c2)cnc1N)c1c(Cl)ccc(F)c1Cl : -1.6

Input line: Give its %-inhibition of PKCβ2 value. Item: "Cc1cn(-c2cc(NC(=O)c3ccc(C)c(Nc4nccc(-c5cccnc5)n4)c3)cc(C(F)(F)F)c2)cn1"
Output line: 1.66

Input line: Give its %-inhibition of PKCβ2 value. Item: "N#CC[C@H](C1CCCC1)n1cc(-c2ncnc3[nH]ccc23)cn1"
Output line: 5

Input line: Give its %-inhibition of PKCβ2 value. Item: "CS(=O)(=O)CCNCc1ccc(-c2ccc3ncnc(Nc4ccc(OCc5cccc(F)c5)c(Cl)c4)c3c2)o1"
Output line: -6

###

Parameter: %-inhibition of SPHK1. Scope: all listed entries.
Biological target: panel of more than 300 wild-type and mutant kinases (313 kinase panel) (Homo sapiens)
Assay: Kinase profiling in a biochemical assay panel (mobility shift assays and ELISA), %-inhibition at 1 μM; selectivity entropy
Conditions: kinase SPHK1; 1 μM
Answers without a unit are incomplete; give the number and then its unit.

Example cases with answers are listed next.
COc1cc2c(Nc3ccc(Br)cc3F)ncnc2cc1OCC1CCN(C)CC1 : -13%
Cc1cn(-c2cc(NC(=O)c3ccc(C)c(Nc4nccc(-c5cccnc5)n4)c3)cc(C(F)(F)F)c2)cn1 : 11%

Could you now consider this next molecule?
Input line: Give its %-inhibition of SPHK1 value. Item: "CS(=O)(=O)CCNCc1ccc(-c2ccc3ncnc(Nc4ccc(OCc5cccc(F)c5)c(Cl)c4)c3c2)o1"
Output line: -11%

###

Target: panel of more than 300 wild-type and mutant kinases (313 kinase panel) (Homo sapiens, UniProt O43781)
Sequence (O43781 1-588): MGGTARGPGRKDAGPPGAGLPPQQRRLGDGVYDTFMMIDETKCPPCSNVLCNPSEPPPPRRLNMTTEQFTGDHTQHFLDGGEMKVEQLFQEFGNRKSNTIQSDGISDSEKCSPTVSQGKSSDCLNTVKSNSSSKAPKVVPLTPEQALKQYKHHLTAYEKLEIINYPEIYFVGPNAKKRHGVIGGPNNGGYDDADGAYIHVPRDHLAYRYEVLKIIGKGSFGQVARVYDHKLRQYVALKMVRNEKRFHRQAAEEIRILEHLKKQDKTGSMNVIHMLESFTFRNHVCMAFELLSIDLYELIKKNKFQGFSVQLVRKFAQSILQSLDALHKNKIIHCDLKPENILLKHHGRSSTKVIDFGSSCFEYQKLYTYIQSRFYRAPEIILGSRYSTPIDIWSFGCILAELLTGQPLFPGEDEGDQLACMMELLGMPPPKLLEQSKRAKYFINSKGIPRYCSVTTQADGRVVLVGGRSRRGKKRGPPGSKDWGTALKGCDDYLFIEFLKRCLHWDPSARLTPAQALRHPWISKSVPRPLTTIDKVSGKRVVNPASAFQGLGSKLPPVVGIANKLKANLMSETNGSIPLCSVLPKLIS
Assay: Kinase profiling in a biochemical assay panel (mobility shift assays and ELISA), %-inhibition at 1 μM; selectivity entropy
Conditions: kinase DYRK3; compound at 1 μM
quantity-kind: %-inhibition of DYRK3 (%)
Dear colleague, please return just the value in %, with no unit written.

Input line: Give its %-inhibition of DYRK3 value. Item: COc1cc2nccc(Oc3ccc(NC(=O)C4(C(=O)Nc5ccc(F)cc5)CC4)cc3)c2cc1OC [cabozantinib]
Output line: 4

Input line: Give its %-inhibition of DYRK3 value. Item: "N#CC[C@H](C1CCCC1)n1cc(-c2ncnc3[nH]ccc23)cn1"
Output line: -9

Input line: Give its %-inhibition of DYRK3 value. Item: "COc1cc2c(Nc3ccc(Br)cc3F)ncnc2cc1OCC1CCN(C)CC1"
Output line: -5

Input line: Give its %-inhibition of DYRK3 value. Item: "Cc1ccc(C(=O)Nc2ccc(CN3CCN(C)CC3)c(C(F)(F)F)c2)cc1C#Cc1cnc2cccnn12"
Output line: 50

###

Target: panel of more than 300 wild-type and mutant kinases (313 kinase panel) (Homo sapiens)
Assay: Kinase profiling in a biochemical assay panel (mobility shift assays and ELISA), %-inhibition at 1 μM; selectivity entropy
Settings: kinase BRSK2; 1 μM compound
Parameter: %-inhibition, BRSK2. Scope: all listed entries.
Dear colleague, please return just the value in %, with no unit written.

Example cases with answers are listed next.
CC(=O)Nc1cccc(-n2c(=O)n(C3CC3)c(=O)c3c(Nc4ccc(I)cc4F)n(C)c(=O)c(C)c32)c1 : 5.38
Cc1cn(-c2cc(NC(=O)c3ccc(C)c(Nc4nccc(-c5cccnc5)n4)c3)cc(C(F)(F)F)c2)cn1 : -0.27
Cc1ccc(C(=O)Nc2ccc(CN3CCN(C)CC3)c(C(F)(F)F)c2)cc1C#Cc1cnc2cccnn12 : -11
COc1cc2nccc(Oc3ccc(NC(=O)C4(C(=O)Nc5ccc(F)cc5)CC4)cc3)c2cc1OC [cabozantinib] : 5.62
O=S(=O)(c1cccc2cnccc12)N1CCCNCC1 : 6
CS(=O)(=O)CCNCc1ccc(-c2ccc3ncnc(Nc4ccc(OCc5cccc(F)c5)c(Cl)c4)c3c2)o1 : 3.58

Input line: Given the entry "N#CC[C@H](C1CCCC1)n1cc(-c2ncnc3[nH]ccc23)cn1" , what %-inhibition, BRSK2 was observed with panel of more than 300 wild-type and mutant kinases (313 kinase panel) (Homo sapiens)?
Output line: -12

###

Biological target: panel of more than 300 wild-type and mutant kinases (313 kinase panel) (Homo sapiens)
Sequence (Q8TD19 1-979): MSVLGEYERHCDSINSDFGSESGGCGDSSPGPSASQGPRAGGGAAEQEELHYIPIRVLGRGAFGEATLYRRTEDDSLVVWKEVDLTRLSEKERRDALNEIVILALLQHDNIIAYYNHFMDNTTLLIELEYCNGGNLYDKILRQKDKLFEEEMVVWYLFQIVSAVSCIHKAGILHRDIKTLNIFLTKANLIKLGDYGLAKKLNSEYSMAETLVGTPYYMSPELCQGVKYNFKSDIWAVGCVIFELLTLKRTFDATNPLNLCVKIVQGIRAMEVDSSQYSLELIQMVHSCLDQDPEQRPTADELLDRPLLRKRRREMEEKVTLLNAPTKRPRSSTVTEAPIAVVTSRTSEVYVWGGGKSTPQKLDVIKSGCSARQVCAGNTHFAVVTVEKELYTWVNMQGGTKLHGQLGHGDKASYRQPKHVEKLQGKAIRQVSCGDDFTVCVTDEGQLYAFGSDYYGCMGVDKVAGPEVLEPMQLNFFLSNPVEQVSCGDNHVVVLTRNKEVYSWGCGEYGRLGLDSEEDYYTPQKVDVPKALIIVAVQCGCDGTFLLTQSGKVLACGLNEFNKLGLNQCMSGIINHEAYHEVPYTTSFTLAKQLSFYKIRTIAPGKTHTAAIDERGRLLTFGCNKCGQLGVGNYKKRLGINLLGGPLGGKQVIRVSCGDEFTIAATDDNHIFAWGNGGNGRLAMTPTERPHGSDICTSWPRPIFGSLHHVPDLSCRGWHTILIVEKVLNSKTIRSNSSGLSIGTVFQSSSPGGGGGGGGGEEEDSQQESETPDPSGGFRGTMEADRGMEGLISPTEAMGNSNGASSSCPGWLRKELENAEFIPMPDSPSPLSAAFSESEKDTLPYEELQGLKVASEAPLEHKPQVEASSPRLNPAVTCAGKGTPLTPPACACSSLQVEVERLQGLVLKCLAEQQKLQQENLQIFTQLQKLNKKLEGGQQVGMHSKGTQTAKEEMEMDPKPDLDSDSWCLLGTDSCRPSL
Test: Kinase profiling in a biochemical assay panel (mobility shift assays and ELISA), %-inhibition at 1 μM; selectivity entropy
Settings: kinase NEK9; 1 μM
quantity-kind: %-inhibition of NEK9 (%)
Dear colleague, please return just the value in %, with no unit written.

Example cases with answers are listed next.
C[C@@H](Oc1cc(-c2cnn(C3CCNCC3)c2)cnc1N)c1c(Cl)ccc(F)c1Cl [crizotinib] : 57
CO[C@H]1C[C@@H]2CC[C@@H](C)[C@@](O)(O2)C(=O)C(=O)N2CCCC[C@H]2C(=O)O[C@H]([C@H](C)C[C@@H]2CC[C@@H](OCCO)[C@H](OC)C2)CC(=O)[C@H](C)/C=C(\C)[C@@H](O)[C@@H](OC)C(=O)[C@H](C)C[C@H](C)/C=C/C=C/C=C/1C [everolimus] : -11

Could you now consider this next molecule?
Input line: Give its %-inhibition of NEK9 value. Item: CO[C@H]1C[C@@H]2CC[C@@H](C)[C@@](O)(O2)C(=O)C(=O)N2CCCC[C@H]2C(=O)O[C@H]([C@H](C)C[C@@H]2CC[C@@H](OC(=O)C(C)(CO)CO)[C@H](OC)C2)CC(=O)[C@H](C)/C=C(\C)[C@@H](O)[C@@H](OC)C(=O)[C@H](C)C[C@H](C)/C=C/C=C/C=C/1C [temsirolimus]
Output line: -8
